- Tested system: eOD-GT8 (engineered outer domain germline-targeting version 8), monomer (HIV-1 gp120 engineered outer domain, …)
Value kind: binding result

# input binder: G001_gp1_V10_VRC01c_182 (antibody, V domains shown) VH: QLQLVQSGAEVKKPGASVKVSCQASGFTFSGHYMHWVRQAPGHGLEWMGWINTNSGGTNYARKFQGRVTMTRDTSISTAYMELSRLRSDDTAVYYCATSVWFGASVWNFDNWGQGSLVTVSS VL: ENVLTQSPATLSLSPGERATLSCRASQSVSTHNLAWYQQKPGQAPRLLIYGVFSRATGIPDRFSGSGSGTDFTLTISSLEPEDTAVYYCQQYETFGQGTNVEIK ; wanted: its binding result
binds

// next record G001_gp1_V08_VRC01c_144 (antibody, V domains shown) VH: QVQLVQSGAEVKKPGASVKVSCKASGYTFSGHYMHWVRQAPGQGLEWMGWINPNSGGTNYAQKFQGRVTMTRDTSISSAYMELSRLRSDDTAVYYCATHTGSGSSWSFDSWGQGTLVTVSS VL: DIQMTQSPSSLSASVGDRVTITCQASQDISNYLNWYQQKPGKAPKLLIYDASNLETGVPSRFSGSGSGTDFTFTISSLQPEDIATYYCQQYEYFGQGTRLEIK
binds

Every entry's value here was drawn from paper PMC12377726.
